The origin of these recorded values is paper PMC11589570.

# subject of test: GABARAPL2 (Homo sapiens, UniProt P60520)
# Sequence (P60520 whole entry): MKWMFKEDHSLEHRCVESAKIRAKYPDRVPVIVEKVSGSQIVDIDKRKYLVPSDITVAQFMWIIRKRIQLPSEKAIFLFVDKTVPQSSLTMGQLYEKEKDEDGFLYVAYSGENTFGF
# condition description: residue E34; GABARAPL2:ligand molar ratio 1:2
measurement label: CSP
Answer format reminder: number followed by unit.

// worked examples, CSP included
{"columns": ["smiles structure", "subject of test", "CSP"],
 "data": [
  ["Cc1ccc(C(=O)N(CCCN)[C@@H](c2nc3cc(Cl)ccc3c(=O)n2Cc2ccccc2)C(C)C)cc1", "GABARAPL2 (Homo sapiens, UniProt P60520)", "0.009 ppm"],
  ["O=C1Nc2ccc(I)cc2C1=Cc1cc(Br)c(O)c(Br)c1", "GABARAPL2 (Homo sapiens, UniProt P60520)", "0.060 ppm"],
  ["O=c1cc(-c2ccccc2)c2c(O)cc(O)cc2o1", "GABARAPL2 (Homo sapiens, UniProt P60520)", "0.010 ppm"]
]}

Entry O=C1Nc2ccc(Br)cc2C1=Cc1cc(O)c(O)c(Br)c1 ; CSP = 0.012 ppm

* * *

The entries below come with measured CSP values attached.
# subject of test: GABARAPL2 (Homo sapiens)
# condition description: residue I63; GABARAPL2:ligand molar ratio 1:2
# value in ppm; strip the unit string

Below, each entry is followed by its recorded CSP result.
{"columns": ["smiles structure", "unit spec", "CSP"],
 "data": [
  ["O=C1Nc2ccc(I)cc2C1=Cc1cc(Br)c(O)c(Br)c1", "ppm", 0.014],
  ["O=C1Nc2ccc(Br)cc2C1=Cc1cc(O)c(O)c(Br)c1", "ppm", 0.00457],
  ["O=c1cc(-c2ccccc2)c2c(O)cc(O)cc2o1", "ppm", 0.003]
]}

Now look at this one.
// returns CSP for Cc1ccc(C(=O)N(CCCN)[C@@H](c2nc3cc(Cl)ccc3c(=O)n2Cc2ccccc2)C(C)C)cc1 with GABARAPL2 (Homo sapiens); value = 0.004

* * *

# subject of test: UniProtKB P60520
# condition description: residue G38; GABARAPL2:ligand molar ratio 1:2
measurement label: CSP (ppm)
Give the number; ppm is assumed, so skip it.

Look over these answered cases.
{"columns": ["compound", "subject of test", "unit spec", "recorded result"],
 "data": [
  ["O=C1Nc2ccc(I)cc2C1=Cc1cc(Br)c(O)c(Br)c1 [compound 4]", "UniProtKB P60520", "ppm", 0.040],
  ["Cc1ccc(C(=O)N(CCCN)[C@@H](c2nc3cc(Cl)ccc3c(=O)n2Cc2ccccc2)C(C)C)cc1 [compound 3]", "UniProtKB P60520", "ppm", 0.005],
  ["O=c1cc(-c2ccccc2)c2c(O)cc(O)cc2o1 [compound 2]", "UniProtKB P60520", "ppm", 0.012]
]}

Now turn to the next compound.
Reported CSP of O=C1Nc2ccc(Br)cc2C1=Cc1cc(O)c(O)c(Br)c1 [compound 1] : 0.024

* * *

Reported CSP by item:
# subject of test: GABARAPL2 (Homo sapiens)
# condition description: residue I44; GABARAPL2:ligand molar ratio 1:2
# unit: ppm | format: bare number

{"columns": ["compound", "subject of test", "measurement label", "unit spec", "recorded result"],
 "data": [
  ["O=C1Nc2ccc(I)cc2C1=Cc1cc(Br)c(O)c(Br)c1 [compound 4]", "GABARAPL2 (Homo sapiens)", "CSP", "ppm", 0.029],
  ["O=c1cc(-c2ccccc2)c2c(O)cc(O)cc2o1 [compound 2]", "GABARAPL2 (Homo sapiens)", "CSP", "ppm", 0.002],
  ["O=C1Nc2ccc(Br)cc2C1=Cc1cc(O)c(O)c(Br)c1 [compound 1]", "GABARAPL2 (Homo sapiens)", "CSP", "ppm", 0.005]
]}

We now examine a further compound.
Memo: Cc1ccc(C(=O)N(CCCN)[C@@H](c2nc3cc(Cl)ccc3c(=O)n2Cc2ccccc2)C(C)C)cc1 [compound 3] , reported CSP: 0.00216
